All figures here come from the supplement of paper PMC10567573.

We begin with a simple list: items and their reported protein stability index.
B1: KRT18 (parent)
chain: RVRSLETENRRLESKIREHLEKKG

Variants of: B1
protocolNotes: protein stability index of a GFP-peptide fusion (GPS, HEK-293T) (PSI 1-6); higher = more stable;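 note: lentivirally expressed fusions sorted by FACS into six bins by GFP to DsRed ratio, PSI derived from sequencing read proportions per bin multiplied by bin number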
conditionDescription: c terminus: a fixed tail appended
testReadout: protein stability index

INSERT INTO assay_data (variantkey, endpointvalue) VALUES
  ('L20T', 4.99),
  ('E18K', 3.95),
  ('T7N', 4.34),
  ('K23D', 5.45),
  ('K15F', 3.04),
  ('L5A', 4.54),
  ('N9I', 2),
  ('L12H', 5.05),
  ('R17Q', 4.54),
  ('S4H', 3.84),
  ('R3F', 3.46);
